species on record: Homo sapiens; assay: Selectivity index, ratio of IC50 for human […] cells to IC50 for human MCF7 cells
Outcome measure: Ratio IC50
Response field accepts a number only; no unit should be typed.

>>> measurement("COC(=O)C[Se]C(=O)[C@@H](C)c1ccc2cc(OC)ccc2c1")
0.3
>>> measurement("COC(=O)C[Se]C(=O)c1ccccc1OC(C)=O")
0.4
>>> measurement("COc1ccc2cc([C@H](C)C(=O)[Se]CC#N)ccc2c1")
0.5
>>> measurement("COC(=O)C[Se]C(=O)c1ccccc1O")
0.3
>>> measurement("N#CCC[Se]C(=O)c1ccccc1O")
0.1

# lookup: Ratio IC50 of "N#CC[Se]C(=O)c1ccccc1O" 0.3

Note, next up: "CC(=O)Oc1ccccc1C(=O)[Se]CC#N" 0.4
